Hi there, I'd appreciate the recorded EC50 for every entry that follows.
# Tested on: Iricα6B (homomeric α6 nicotinic acetylcholine receptor, splice variant B)
# Construct: full-length Iricα6B, 517 amino acids (exon 3b only), homopentamer
# procedureText: two-electrode voltage clamp in Xenopus laevis oocytes expressing Iricα6B (agonist dose-response)
# Assay type: cell-based, Ixodes ricinus
Respond with the bare value in µM.

Asked: Quick check: EC50 of CC(=O)OCC[N+](C)(C)C ?
Given back: 2

Asked: Quick check: EC50 of CN/C(=N/CC1CCOC1)N[N+](=O)[O-] (stereo not drawn) ?
Given back: 0.00042

Asked: Quick check: EC50 of O=[N+]([O-])NC1=NCCN1Cc1ccc(Cl)nc1 ?
Given back: 0.0116
